tested.system: EcA2-4M (L-asparaginase II, BL21(DE3) / Elspar sequence) (Escherichia coli, UniProt P00805, N86D/S274T/T285N/V49A)
Construct: mature protein (precursor residues 23 to 348) behind a pelB leader, pET25b, secreted from E. coli BL21(DE3), purified from medium; no tag mentioned; homotetramer with four active sites
Sequence (P00805 23-348 V49A/N86D/S274T/T285N): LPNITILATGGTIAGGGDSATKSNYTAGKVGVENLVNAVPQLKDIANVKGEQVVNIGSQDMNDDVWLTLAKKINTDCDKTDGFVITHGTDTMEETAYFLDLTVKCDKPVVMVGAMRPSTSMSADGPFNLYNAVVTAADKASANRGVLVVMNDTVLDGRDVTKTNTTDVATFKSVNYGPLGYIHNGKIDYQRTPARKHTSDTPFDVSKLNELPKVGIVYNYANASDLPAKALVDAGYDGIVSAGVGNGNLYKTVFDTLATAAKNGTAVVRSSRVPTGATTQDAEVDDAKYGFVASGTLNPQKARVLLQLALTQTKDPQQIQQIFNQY
procedure.text: intrinsic tryptophan fluorescence titration (spectral center of mass), Hill fit
endpoint.label: Kd (µM)
Give your result in µM as a bare value.

Query: Item N[C@@H](CC(=O)O)C(=O)O [L-Asp] : provide Kd
Result: 66

meta.source: paper PMC12273708
